- Assay procedure: NCI Yeast Anticancer Drug Screen. Data for the bub3 strain (AID 167)
- Condition description: S. cerevisiae bub3 mutant strain, at 50.0 µM (retest, dose inferred, filed as 5.0), hits give high values
Compounds without any hit were thinned out: in the full panel of roughly 79,000, 15% have a hit.
Class (by growth inhibition) -- low (below 70%), middle (70% to below 90%), high (90% or more)

# Compound, Class assignment
measured = [
    ("CCCNC(=S)N/N=C(/C)c1nccc2ccccc12", "middle"),
    ("COc1ccc(-c2c(-c3ccccc3)c(C)nc3nc(SC)nc(SC)c23)cc1OC", "high"),
    ("CCCCCCCCCCCCCCCCS(=O)(=O)Cl", "middle"),
    ("Cn1c2c(c3nc(N)nc(N)c3c1=O)CCc1ccccc1-2", "low"),
    ("O=C(CC1C(=O)c2ccccc2C1=C1C(=O)c2ccccc2C1=O)c1ccccc1 (centres undefined)", "high"),
    ("NC(CCCCCC(N)C(=O)O)C(=O)O (centres undefined)", "low"),
    ("O=Cc1c(O)ccc2ccccc12.[Cu+2]", "high"),
    ("CCOC(=O)c1c(C)n(C)c2c1nnc1ccccc12", "middle"),
    ("CCCCCCC[CH2][Sn]([CH2]CCCCCCC)([O]c1cccc2cccnc12)[O]c1cccc2cccnc12", "low"),
    ("N#CSc1ccc(Nc2ccc(SC#N)cc2)cc1", "high"),
    ("CCCCc1c2c(nc3c1CCc1cc4cc5c(nc4nc1-3)-c1nc3c(c(CCCC)c1CC5)CCCC3=O)C(=O)CCC2", "high"),
    ("CC(=O)N1c2ccccc2Sc2ccc3ccc(C(=O)CCl)cc3c21", "high"),
    ("O=C(Oc1ccccc1)C1CCCCC1C(=O)Oc1ccccc1 (centres undefined)", "low"),
    ("Oc1ccc(O)c2c(O)c3ccccc3c(O)c12", "middle"),
    ("Cc1c2[nH]c3ccc(Br)cc3c2c(C)c2[nH]ccc(=O)c12", "middle"),
    ("O=C1OC2(c3ccc(O)cc3Oc3cc(O)ccc32)c2c1c(-c1ccccc1)c(-c1ccccc1)c(-c1ccccc1)c2-c1ccccc1", "low"),
    ("O=C(O)c1ccc(C(=O)c2ccccc2C(=O)O)cc1", "low"),
]

###

The entries below come with measured growth inhibition values attached.
- Assay procedure: NCI Yeast Anticancer Drug Screen. Data for the bub3 strain (AID 167)
- Condition description: S. cerevisiae bub3 mutant strain, at 5.0 µM (retest, dose inferred, filed as 0.5), hits give high values
About 79,000 compounds went through this panel and 15% of them were active in at least one assay; those are over-represented in the sample as a whole. The source made the active and inactive calls. Rule as the data show it: active = growth inhibition above about 70%; inactive = the rest.
Observable: growth inhibition

# Molecule, Observable, Reported value
data = [
    ("CCCC(C)C/C(C)=C\\C(C)(C)C1CC(=O)N(CC)C1=O (stereo not drawn)", "growth inhibition", "4% (inactive)"),
    ("CCCCN(CCCC)C(=O)c1ccc(Cl)cc1Cl", "growth inhibition", "26% (inactive)"),
    ("CCCN(CCC)CC(O)c1ccc2ccc3ccc(Cl)cc3c2c1 (stereo not drawn)", "growth inhibition", "38% (inactive)"),
    ("CC(=O)C(C(=N)C#N)C(=O)Nc1ccccc1 (stereo not drawn)", "growth inhibition", "6% (inactive)"),
    ("OCC1CC[N-]CC1.OCC1CC[N-]CC1.[Cl][Pt+2]([Cl])([Cl])[Cl]", "growth inhibition", "6% (inactive)"),
    ("C[C@]12CC[C@H](O)CC1=CC[C@@H]1C2CC[C@]2(C)C(=O)N(N)C(=O)CC12 (stereo partly drawn)", "growth inhibition", "16% (inactive)"),
    ("CCCCCCCCCCCCCCC[N+]1(CC)CCCCC1", "growth inhibition", "98% (active)"),
    ("CCc1n[nH]c(CC)c1CCCCCCOc1ccc(OC)cc1Cl", "growth inhibition", "-8% (inactive)"),
]
